Entries annotated with measured pIC50
Target: HSD2 (Homo sapiens (Human))
Experiment: HSD2 activity: cortisol conversion in human descending colon organoid monolayer cultures (Example 112)
Conditions: human descending colon epithelial cultures on transwells; 30 minute pre-incubation, then 40 nM cortisol for four hours; cortisol HTRF assay
Please give only the number in your answer, with no unit.

COCO[C@H]1CC[C@@]2(C)[C@@H](CC[C@]3(C)[C@@H]2C(=O)C=C2[C@@H]4C[C@@](C)(C(=O)O)CC[C@]4(C)CC[C@]23C)[C@]1(C)C(=O)O | 5.1

Note to self: pIC50 recorded for CSCC(=O)O[C@H]1CC[C@@]2(C)[C@@H](CC[C@]3(C)[C@@H]2C(=O)C=C2[C@@H]4C[C@@](C)(C(=O)O)CC[C@]4(C)CC[C@]23C)[C@]1(C)C(=O)OCc1oc(=O)oc1C [Compound 194-10] was 8

molecule CC1(C)[C@@H](OCC(=O)OCc2oc(=O)oc2CO)CC[C@]2(C)[C@H]3C(=O)C=C4[C@@H]5C[C@@](C)(C(=O)O)CC[C@]5(C)CC[C@@]4(C)[C@]3(C)CC[C@@H]12 [Compound 711-1] , pIC50 observed: 5.8

pIC50 reading for Cc1oc(=O)oc1COC(=O)[C@H]1CC[C@]2(C)[C@H]3C(=O)C=C4[C@@H]5C[C@@](C)(C(=O)O)CC[C@]5(C)CC[C@@]4(C)[C@]3(C)CC[C@H]2C1(C)C [Compound 176-2] : 6.3

The molecule identified as CSCC(=O)O[C@H]1CC[C@@]2(C)[C@@H](CC[C@]3(C)[C@@H]2C(=O)C=C2[C@@H]4C[C@@](C)(C(=O)O)CC[C@]4(C)CC[C@]23C)[C@]1(C)C(=O)O registered its pIC50 at 5.4

----------
Biological target: HSD2 (Homo sapiens (Human), UniProt P80365)
Sequence (P80365 whole entry): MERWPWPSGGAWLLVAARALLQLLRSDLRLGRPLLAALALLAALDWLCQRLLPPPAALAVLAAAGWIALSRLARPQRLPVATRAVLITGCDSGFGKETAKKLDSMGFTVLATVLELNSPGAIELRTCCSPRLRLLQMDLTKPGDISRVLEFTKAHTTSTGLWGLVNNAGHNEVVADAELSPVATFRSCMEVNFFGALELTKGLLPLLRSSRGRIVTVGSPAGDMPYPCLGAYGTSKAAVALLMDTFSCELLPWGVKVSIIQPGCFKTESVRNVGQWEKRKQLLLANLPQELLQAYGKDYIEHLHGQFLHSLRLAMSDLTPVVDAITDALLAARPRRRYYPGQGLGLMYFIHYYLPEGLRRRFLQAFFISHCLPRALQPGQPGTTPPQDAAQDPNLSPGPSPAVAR
Test: HSD2 activity: cortisol conversion in human descending colon organoid monolayer cultures (Example 112)
Conditions: human descending colon epithelial cultures on transwells; 30 minute pre-incubation, then 40 nM cortisol for four hours; cortisol HTRF assay
observed_property: pIC50
Number, no unit, nothing else.

The examples below pair each entry with its known result.
C[C@]1(C(=O)O)CC[C@]2(C)CC[C@]3(C)C(=CC(=O)[C@@H]4[C@@]5(C)CC[C@H](OC(=O)c6ccccc6)[C@@](C)(C(=O)O)[C@@H]5CC[C@]43C)[C@@H]2C1 | 6.6
CCOC(=O)c1cnn([C@H]2CC[C@@]3(C)[C@@H](CC[C@]4(C)[C@@H]3C(=O)C=C3[C@@H]5C[C@@](C)(C(=O)O)CC[C@]5(C)CC[C@]34C)[C@]2(C)C(=O)O)c1OC | 5.6

Query molecule follows.
// field: pIC50; key: Cc1oc(=O)oc1COC(=O)COC[C@@]1(C)[C@@H]2CC[C@]3(C)[C@H](C(=O)C=C4[C@@H]5C[C@@](C)(C(=O)O)CC[C@]5(C)CC[C@]43C)[C@@]2(C)CC[C@@H]1O ; value = 5

----------
Biological target: HSD2 (Homo sapiens (Human), UniProt P80365)
Assay: HSD2 activity: cortisol conversion in human descending colon organoid monolayer cultures (Example 112)
Conditions: human descending colon epithelial cultures on transwells; 30 minute pre-incubation, then 40 nM cortisol for four hours; cortisol HTRF assay
observed_property: pIC50
When you answer, write just the number.

COCC(=O)O[C@H]1CC[C@@]2(C)[C@@H](CC[C@]3(C)[C@@H]2C(=O)C=C2[C@@H]4C[C@@](C)(C(=O)O)CC[C@]4(C)CC[C@]23C)[C@]1(C)C(=O)OCc1oc(=O)oc1C | 7.2
CC(=O)O[C@H]1CC[C@@]2(C)[C@@H](CC[C@]3(C)[C@@H]2C(=O)C=C2[C@@H]4C[C@@](C)(C(=O)O)CC[C@]4(C)CC[C@]23C)[C@]1(C)C(=O)OCc1oc(=O)oc1C(C)C | 7.2
CCCc1oc(=O)oc1COC(=O)[C@]1(C)[C@@H](OC(C)=O)CC[C@@]2(C)[C@H]1CC[C@]1(C)[C@@H]2C(=O)C=C2[C@@H]3C[C@@](C)(C(=O)O)CC[C@]3(C)CC[C@]21C | 6.7
CC(=O)O[C@H]1CC[C@@]2(C)[C@@H](CC[C@]3(C)[C@@H]2C(=O)C=C2[C@@H]4C[C@@](C)(C(=O)O)CC[C@]4(C)CC[C@]23C)[C@]1(C)C(=O)OCc1oc(=O)oc1C(C)(C)C | 6.6
C[C@]1(C(=O)O)CC[C@]2(C)CC[C@]3(C)C(=CC(=O)[C@@H]4[C@@]5(C)CC[C@H](OC(=O)CO)[C@@](C)(C(=O)O)[C@@H]5CC[C@]43C)[C@@H]2C1 | 5.9
Cc1oc(=O)oc1COC(=O)[C@]1(C)[C@@H](OC(=O)c2ccccc2)CC[C@@]2(C)[C@H]1CC[C@]1(C)[C@@H]2C(=O)C=C2[C@@H]3C[C@@](C)(C(=O)O)CC[C@]3(C)CC[C@]21C | 7.9

So the reported pIC50 for CC1(C)[C@@H](C(=O)O)CC[C@]2(C)[C@H]3C(=O)C=C4[C@@H]5C[C@@](C)(C(=O)O)CC[C@]5(C)CC[C@@]4(C)[C@]3(C)CC[C@@H]12 , on HSD2 (Homo sapiens (Human), UniProt P80365), turned out to be 5.5

Tested on HSD2 (Homo sapiens (Human), UniProt P80365): Cc1oc(=O)oc1COC(=O)CO[C@H]1CC[C@]2(C)[C@H]3C(=O)C=C4[C@@H]5C[C@@](C)(C(=O)O)CC[C@]5(C)CC[C@@]4(C)[C@]3(C)CC[C@H]2C1(C)C . Observed pIC50: 5
